# SYSTEM_UNDER_TEST: recombinant human ACC2 (Homo sapiens (Human))
# EXPERIMENTAL_PROTOCOL: Measurement of inhibitory activity on human ACC2 (MALDI-TOF MS, acetyl CoA to malonyl CoA conversion)
# Format: biochemical
# PARTICULARS: Tables 155-159
# From the text: Preparation 1: Preparation of Recombinant Human ACC2 After a cDNA encoding human ACC2 (27 amino acid residue to 2458 amino acid residues from the N-terminus) was cloned from human kidney cDNA library (Clontech), human ACC2 gene containing His-tag sequence at 5′ terminus was inserted into pFastBac1 (Invitrogen). Recombinant baculovirus was generated using Bac-to-Bac baculovirus expression system (Invitrogen) according to the manufacturer's protocol. […]
pIC50: −log10 of the molar value.
Lab note: anything with pIC50 at or over 7 counts as True; the rest go in False.

For orientation, consider the following solved cases.
COMPOUND: CC(=O)N[C@@H](C)CO[C@H]1C[C@H](COc2ccc3nc(O[C@H]4C[C@H](O)C4)sc3n2)C1 [Compound I-293]
ASSIGNED_CLASS: False
//
COMPOUND: CC(=O)N[C@@H](C)CO[C@H]1C[C@H](COc2nccc(-c3ncc(C(F)(F)F)cn3)c2C)C1 [Compound I-380]
ASSIGNED_CLASS: True

stdin: Can CC(=O)N[C@@H](C)CO[C@H]1CC[C@H](Oc2nc3c(C)nc(OC4CC4)c(F)c3n2C)CC1 [Compound I-632] be said to have pIC50 at or above 7?
stdout: True

stdin: Can CC(=O)N[C@@H](C)CO[C@H]1C[C@H](COc2ncnc(Oc3nsc4ccccc34)c2Cl)C1 [Compound I-399] be said to have pIC50 at or above 7?
stdout: True

stdin: Can CC(=O)N[C@@H](C)CO[C@H]1C[C@H](COc2nccc(OC3C[C@@H]4CC[C@@H]3C4)c2Cl)C1 (stereo partly drawn) [Compound I-366] be said to have pIC50 at or above 7?
stdout: True

stdin: Can CCOc1nc2ccc(O[C@H]3CC[C@H](OC[C@H](C)NC(C)=O)CC3)nc2s1 [Compound I-178] be said to have pIC50 at or above 7?
stdout: True

stdin: Can CC(=O)N[C@@H](C)CO[C@H]1CC[C@H](Oc2nc3cc(Br)ccc3n2C)CC1 [Compound I-557] be said to have pIC50 at or above 7?
stdout: False

stdin: Can CC(=O)N[C@@H](C)CO[C@H]1C[C@H](COc2cc(C)c3nc(OCC4CC4)n(C)c3n2)C1 [Compound I-486] be said to have pIC50 at or above 7?
stdout: False

---

# SYSTEM_UNDER_TEST: recombinant human ACC2 (Homo sapiens (Human), UniProt O00763)
# Sequence (O00763 27-2458): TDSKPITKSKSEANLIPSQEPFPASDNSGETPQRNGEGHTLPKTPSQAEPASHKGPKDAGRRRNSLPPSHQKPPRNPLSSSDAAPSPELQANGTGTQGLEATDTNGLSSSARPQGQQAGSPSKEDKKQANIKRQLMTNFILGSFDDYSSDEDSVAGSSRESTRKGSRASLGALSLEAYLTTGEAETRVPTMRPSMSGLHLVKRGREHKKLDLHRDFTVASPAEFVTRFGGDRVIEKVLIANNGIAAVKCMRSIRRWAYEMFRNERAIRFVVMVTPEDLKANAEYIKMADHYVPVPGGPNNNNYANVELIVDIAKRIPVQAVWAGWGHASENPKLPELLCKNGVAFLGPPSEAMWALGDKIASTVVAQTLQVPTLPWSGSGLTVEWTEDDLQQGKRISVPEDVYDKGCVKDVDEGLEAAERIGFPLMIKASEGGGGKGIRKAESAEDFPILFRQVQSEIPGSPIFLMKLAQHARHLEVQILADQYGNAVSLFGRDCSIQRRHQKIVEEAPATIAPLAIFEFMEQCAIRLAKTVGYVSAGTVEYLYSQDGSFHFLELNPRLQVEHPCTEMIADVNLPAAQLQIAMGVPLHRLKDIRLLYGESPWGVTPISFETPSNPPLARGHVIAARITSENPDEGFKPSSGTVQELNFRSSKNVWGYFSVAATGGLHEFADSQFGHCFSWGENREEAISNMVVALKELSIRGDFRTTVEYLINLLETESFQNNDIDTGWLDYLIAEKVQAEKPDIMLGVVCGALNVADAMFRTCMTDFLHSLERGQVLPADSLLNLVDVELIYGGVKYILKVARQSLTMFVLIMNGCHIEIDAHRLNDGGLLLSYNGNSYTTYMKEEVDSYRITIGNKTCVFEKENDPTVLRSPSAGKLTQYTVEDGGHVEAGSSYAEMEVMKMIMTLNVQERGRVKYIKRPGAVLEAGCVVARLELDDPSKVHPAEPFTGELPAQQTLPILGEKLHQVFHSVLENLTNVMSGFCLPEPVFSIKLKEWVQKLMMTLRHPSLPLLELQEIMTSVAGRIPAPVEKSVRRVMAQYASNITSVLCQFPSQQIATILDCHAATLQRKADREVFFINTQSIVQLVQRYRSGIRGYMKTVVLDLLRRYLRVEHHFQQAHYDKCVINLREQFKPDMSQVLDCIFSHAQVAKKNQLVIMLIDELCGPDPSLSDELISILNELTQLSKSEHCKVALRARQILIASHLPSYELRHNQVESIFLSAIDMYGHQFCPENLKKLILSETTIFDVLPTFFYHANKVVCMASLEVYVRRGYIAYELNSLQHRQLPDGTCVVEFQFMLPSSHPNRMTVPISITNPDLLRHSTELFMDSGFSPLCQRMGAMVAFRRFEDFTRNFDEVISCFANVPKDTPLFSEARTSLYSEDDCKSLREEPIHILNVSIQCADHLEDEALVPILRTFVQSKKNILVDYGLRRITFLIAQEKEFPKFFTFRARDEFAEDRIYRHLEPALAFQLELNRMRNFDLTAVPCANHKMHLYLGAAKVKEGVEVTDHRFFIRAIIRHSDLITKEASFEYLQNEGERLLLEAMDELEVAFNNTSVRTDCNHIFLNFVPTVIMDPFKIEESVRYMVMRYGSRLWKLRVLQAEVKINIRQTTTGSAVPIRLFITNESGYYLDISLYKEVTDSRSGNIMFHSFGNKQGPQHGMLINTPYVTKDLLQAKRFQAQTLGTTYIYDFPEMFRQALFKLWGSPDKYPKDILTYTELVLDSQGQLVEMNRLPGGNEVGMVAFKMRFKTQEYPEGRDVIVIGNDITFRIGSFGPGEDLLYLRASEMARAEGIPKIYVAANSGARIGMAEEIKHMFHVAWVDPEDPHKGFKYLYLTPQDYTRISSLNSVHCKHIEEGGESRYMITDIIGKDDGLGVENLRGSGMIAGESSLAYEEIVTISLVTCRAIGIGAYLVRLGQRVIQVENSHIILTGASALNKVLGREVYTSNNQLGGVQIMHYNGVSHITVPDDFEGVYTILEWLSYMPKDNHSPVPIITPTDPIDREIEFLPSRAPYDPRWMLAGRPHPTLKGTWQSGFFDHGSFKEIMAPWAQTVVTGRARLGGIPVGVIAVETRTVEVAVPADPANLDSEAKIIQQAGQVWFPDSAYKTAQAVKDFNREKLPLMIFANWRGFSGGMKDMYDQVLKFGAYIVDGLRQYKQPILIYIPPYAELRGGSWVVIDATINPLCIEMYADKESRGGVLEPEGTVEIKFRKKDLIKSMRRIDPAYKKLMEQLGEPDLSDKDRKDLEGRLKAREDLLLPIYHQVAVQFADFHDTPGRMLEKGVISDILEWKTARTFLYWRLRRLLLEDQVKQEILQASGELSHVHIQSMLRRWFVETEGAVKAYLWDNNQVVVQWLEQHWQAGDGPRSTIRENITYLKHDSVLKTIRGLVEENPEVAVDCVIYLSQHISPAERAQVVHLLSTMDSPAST
# EXPERIMENTAL_PROTOCOL: Measurement of inhibitory activity on human ACC2 (MALDI-TOF MS, acetyl CoA to malonyl CoA conversion)
# Format: biochemical
# PARTICULARS: Tables 155-159
MEASURE_NAME: IC50 (nM)
Just the number please, in nM, no unit attached.

COMPOUND: CC(=O)N[C@@H](C)CO[C@H]1CC[C@H](Oc2nc3ccc(C(C)C)cc3n2C)CC1 [Compound I-585]
UNIT_SYMBOL: nM
MEASUREMENT: 77

stdin: Please report IC50 with recombinant human ACC2 (Homo sapiens (Human), UniProt O00763) for item CC(=O)N[C@@H](C)CO[C@H]1CC[C@H](Oc2nc3c(Cl)cc(OCC(F)F)c(F)c3n2C)CC1 [Compound I-742] .
stdout: 13

stdin: Please report IC50 with recombinant human ACC2 (Homo sapiens (Human), UniProt O00763) for item CC(=O)N[C@@H](C)CO[C@H]1C[C@H](COc2ccc3nc(OCC4CC4(F)F)sc3n2)C1 (stereo partly drawn) [Compound I-197] .
stdout: 15

stdin: Please report IC50 with recombinant human ACC2 (Homo sapiens (Human), UniProt O00763) for item CC(=O)N[C@@H](C)CO[C@H]1C[C@H](COc2ccc3nc(O[C@H]4C[C@@H](O)C4)sc3n2)C1 [Compound I-294] .
stdout: 300

stdin: Please report IC50 with recombinant human ACC2 (Homo sapiens (Human), UniProt O00763) for item CC(=O)N[C@@H](C)CO[C@H]1CC[C@H](Oc2nc3ccc(-c4ccccc4)cc3n2C)CC1 [Compound I-582] .
stdout: 168
